Each item that follows carries a reported Inhibition of IP stimulation by 10nM Agonist: IC50.
# System tested: human gpr-54 receptor (human, UniProt Q969F8 1-398)
# Sequence (Q969F8 whole entry): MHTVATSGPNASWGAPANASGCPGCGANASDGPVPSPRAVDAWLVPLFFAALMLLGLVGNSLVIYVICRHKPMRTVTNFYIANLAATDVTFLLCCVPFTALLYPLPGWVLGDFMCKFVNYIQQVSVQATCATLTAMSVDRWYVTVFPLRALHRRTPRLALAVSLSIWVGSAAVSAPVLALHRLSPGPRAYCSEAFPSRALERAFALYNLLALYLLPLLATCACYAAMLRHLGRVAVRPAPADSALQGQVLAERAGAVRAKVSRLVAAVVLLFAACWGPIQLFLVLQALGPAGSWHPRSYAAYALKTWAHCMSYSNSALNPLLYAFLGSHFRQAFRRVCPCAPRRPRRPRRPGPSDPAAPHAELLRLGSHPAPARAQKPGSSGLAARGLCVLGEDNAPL
# Assay info: cell-based or functional assay
Non-standard residues stand in square brackets, D forms with d.
Give a bare numeral; the unit nM is implied.

- Binder: "Ac-[dW]NWNGFG[dW]RF-NH2 (SMILES CC(=O)N[C@H](Cc1c[nH]c2ccccc12)C(=O)N[C@@H](CC(N)=O)C(=O)N[C@@H](Cc1c[nH]c2ccccc12)C(=O)N[C@@H](CC(N)=O)C(=O)NCC(=O)N[C@@H](Cc1ccccc1)C(=O)NCC(=O)N[C@H](Cc1c[nH]c2ccccc12)C(=O)N[C@@H](CCCNC(=N)N)C(=O)N[C@@H](Cc1ccccc1)C(N)=O) [243]"
  Numeric result: 10
- Binder: "Ac-[dF]WLRW-NH2 (SMILES CC(=O)N[C@H](Cc1ccccc1)C(=O)N[C@@H](Cc1c[nH]c2ccccc12)C(=O)N[C@@H](CC(C)C)C(=O)N[C@@H](CCCNC(=N)N)C(=O)N[C@@H](Cc1c[nH]c2ccccc12)C(N)=O, kisspeptin-10 analogue; also called ac[F-(D)]WLRW) [203]"
  Numeric result: 0.1
- Binder: "Ac-[dA]NWNG[dW]G[dW]RF-NH2 (SMILES CC(=O)N[C@H](C)C(=O)N[C@@H](CC(N)=O)C(=O)N[C@@H](Cc1c[nH]c2ccccc12)C(=O)N[C@@H](CC(N)=O)C(=O)NCC(=O)N[C@H](Cc1c[nH]c2ccccc12)C(=O)NCC(=O)N[C@H](Cc1c[nH]c2ccccc12)C(=O)N[C@@H](CCCNC(=N)N)C(=O)N[C@@H](Cc1ccccc1)C(N)=O) [246]"
  Numeric result: 50
- Binder: "Ac-YN[dW]NGFG[dW]RF-NH2 (SMILES CC(=O)N[C@@H](Cc1ccc(O)cc1)C(=O)N[C@@H](CC(N)=O)C(=O)N[C@H](Cc1c[nH]c2ccccc12)C(=O)N[C@@H](CC(N)=O)C(=O)NCC(=O)N[C@@H](Cc1ccccc1)C(=O)NCC(=O)N[C@H](Cc1c[nH]c2ccccc12)C(=O)N[C@@H](CCCNC(=N)N)C(=O)N[C@@H](Cc1ccccc1)C(N)=O, kisspeptin-10 analogue; also called acYN[(D)-W]NGFG[(D)-W]RF) [231]"
  Numeric result: 0.1

Now for the binder whose Inhibition of IP stimulation by 10nM Agonist: IC50 we want.
Value of measured Inhibition of IP stimulation by 10nM Agonist: IC50 for the entry Ac-[dY]NWNG[dW]G[dW]RF-NH2 (SMILES CC(=O)N[C@H](Cc1ccc(O)cc1)C(=O)N[C@@H](CC(N)=O)C(=O)N[C@@H](Cc1c[nH]c2ccccc12)C(=O)N[C@@H](CC(N)=O)C(=O)NCC(=O)N[C@H](Cc1c[nH]c2ccccc12)C(=O)NCC(=O)N[C@H](Cc1c[nH]c2ccccc12)C(=O)N[C@@H](CCCNC(=N)N)C(=O)N[C@@H](Cc1ccccc1)C(N)=O) [245] : 10000

Values were extracted from patent US20110046068A1.
